Values were extracted from PubChem BioAssay AID652087.

Target: Sphingosine 1-phosphate receptor 1 (Homo sapiens)
Experiment: S1P1 receptor antagonists, human, confirmation, counter-screen for OPRK1 antagonist project, cell-based, fluorescence (AID 652087)
Details: Tango EDG-1-bla U2OS, beta-lactamase FRET, S1P antagonism; at 9 µM; hits give high values
parameter: inhibition (%)

Field: example entries. Status: answers known.
>  <molecule>
C=CCNC(=S)NNC(=O)c1oc2nc(-c3ccc(Cl)cc3)cc(-c3ccccc3)c2c1N

>  <inhibition / %>
8.18

$$$$
>  <molecule>
O=C1c2ccc(Cl)c3c(N4CCSCC4)ccc(c23)C(=O)N1c1ccccc1

>  <inhibition / %>
-15.7

$$$$
>  <molecule>
COc1ccccc1C1CCN(Cc2ccc3c(c2)CCC(C)(C)O3)CC1

>  <inhibition / %>
-5.53

$$$$
>  <molecule>
Nc1c(C(=O)N/N=C/c2ccc3c(c2)OCO3)sc2nnc(-c3ccccc3)c(-c3ccccc3)c12

>  <inhibition / %>
65

$$$$
>  <molecule>
COc1ccccc1NC(=O)NCCN1CCN(Cc2ccccc2)CC1

>  <inhibition / %>
66.8

$$$$

A = CCOC(=O)c1ccc(N2CC3CCCCN3C2c2cccc(OC)c2O)cc1 (stereo not drawn)
B = CC(=O)Nc1onc(C)c1-c1nc(-c2ccc(Cl)cc2Cl)cs1
C = O=C(Nc1ccc(F)c(Cl)c1)c1cc(Br)ccc1O
D = CCOC(=O)c1cc(C(=O)OC)c(C)nc1N1CCC(NC2CCCCC2O)CC1 (stereo not drawn)
E = CC1COC(c2cccc([N+](=O)[O-])c2)N1 (stereo not drawn)
## Task Order these by inhibition, descending, and give the full ranking. Reply with the labels, ordered as the question asks.
## Result C, E, D, B, A

A = COC(=O)/C=C1\SC(=Nc2ccc(Cl)cc2)N(c2ccc(Cl)cc2)C1=O
B = CSc1sc(C(=O)NC(=O)Nc2ccc(Cl)cc2)c2c1-c1nocc1CC2
## Task Would you kindly point out which of A and B has the smaller inhibition figure? Output the label that corresponds to your choice.
## Result B

a = O=[N+]([O-])c1ccc(N2CCc3ccccc32)cc1
b = CC(=O)c1sc2nc(-c3cccs3)cc(C(F)(F)F)c2c1N
## Task inhibition comparison. Which is larger, a or b ? Respond with the label that goes with your answer.
## Result a

###

Target: Sphingosine 1-phosphate receptor 1 (Homo sapiens) (UniProt P21453)
Sequence (P21453 whole entry, looked up): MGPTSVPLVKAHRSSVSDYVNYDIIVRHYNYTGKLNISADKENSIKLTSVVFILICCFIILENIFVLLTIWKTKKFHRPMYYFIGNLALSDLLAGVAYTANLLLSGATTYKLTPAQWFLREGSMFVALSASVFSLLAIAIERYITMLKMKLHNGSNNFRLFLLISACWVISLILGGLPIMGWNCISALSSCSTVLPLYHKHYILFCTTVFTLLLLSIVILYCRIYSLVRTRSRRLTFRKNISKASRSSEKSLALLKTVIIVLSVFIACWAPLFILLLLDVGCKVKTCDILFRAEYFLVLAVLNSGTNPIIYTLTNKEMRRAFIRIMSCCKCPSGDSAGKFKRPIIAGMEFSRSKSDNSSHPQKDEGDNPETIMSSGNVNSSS
Assay: S1P1 receptor antagonists, human, confirmation, counter-screen for OPRK1 antagonist project, cell-based, fluorescence (AID 652087)
Settings: Tango EDG-1-bla U2OS, beta-lactamase FRET, S1P antagonism; at 9 µM; hits give high values
parameter: inhibition (%)

Answered examples (3):
>  <molecule>
O=c1c2cc(-c3ccccc3)sc2nnn1/N=C/c1cccs1

>  <inhibition, %>
15.2

$$$$
>  <molecule>
Clc1ccc2c(Nc3ccc4c(c3)OCO4)ccnc2c1

>  <inhibition, %>
-9.65

$$$$
>  <molecule>
O=C(O)C(F)(F)C(F)(F)C(=O)NCc1cccc(Cl)c1

>  <inhibition, %>
-3.44

$$$$

1 = CCCCCCCCCCCC(=O)ON1C(=O)CCC1=O
2 = N#Cc1c(S/C=C(\O)c2cc3ccccc3o2)nc2c(c1C(F)(F)F)CCCC2
## Task Dear colleague, could you let me know whether 1 or 2 has the lower recorded inhibition? Thanks. Answer by quoting the chosen item's label.
## Result 2
(2: 14.5%, 1: 51.2%)
